Biological target: T1, HlgAB (Staphylococcus aureus, UniProt P0A074 30-309)
T1 sequence 1: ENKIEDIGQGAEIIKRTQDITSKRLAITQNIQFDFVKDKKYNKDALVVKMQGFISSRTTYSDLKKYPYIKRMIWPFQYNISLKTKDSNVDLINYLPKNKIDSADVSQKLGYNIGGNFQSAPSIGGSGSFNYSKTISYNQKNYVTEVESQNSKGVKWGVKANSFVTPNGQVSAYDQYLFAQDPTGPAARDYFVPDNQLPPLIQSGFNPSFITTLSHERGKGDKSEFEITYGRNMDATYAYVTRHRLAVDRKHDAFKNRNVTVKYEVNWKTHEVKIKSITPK
T1 sequence 2: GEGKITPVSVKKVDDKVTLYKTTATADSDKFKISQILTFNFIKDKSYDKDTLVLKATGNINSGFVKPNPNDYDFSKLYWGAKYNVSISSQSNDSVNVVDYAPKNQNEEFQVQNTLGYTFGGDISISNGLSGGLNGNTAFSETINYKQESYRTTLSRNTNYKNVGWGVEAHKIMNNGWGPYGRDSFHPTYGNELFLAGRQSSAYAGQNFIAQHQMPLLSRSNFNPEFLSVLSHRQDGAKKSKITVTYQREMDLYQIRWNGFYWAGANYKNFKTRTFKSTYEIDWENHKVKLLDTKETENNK
Test: cell-based or functional assay
metric: IC50 Fold loss vs. WT (HIgAB) (fold)
Answers are plain numbers, in fold.

Worked cases, IC50 Fold loss vs. WT (HIgAB) given:
binder	observed.value
SAN481-T-YTE (antibody, V domains shown, also called QD3; SAN481VH28T-YTE) VH: QLQLVESGGGAVQPGRSLKLSCAASGFTFSTYAMHWVRQAPGRGLEWVAVTSFDGSNEYYIDSVKGRFTISRDNTKNTLYLQMTGLRVEDTALYFCARDEYTGGWYSVGYWGQGTLVTVSS VL: QSVLTQPPSASGTPGQRVTISCSGNSYNIGSNSVYWYQQFPGTAPKLLISRSIQRPSGVPDRFSGSKSVTSASLAISGLRSEDEADYYCAAWDDSLRAWVFGGGTKLTVLG	0.948
SAN481-TF-YTE (antibody, V domains shown, also called QD4; SAN481-VH28T100E-YTE) VH: QLQLVESGGGAVQPGRSLKLSCAASGFTFSTYAMHWVRQAPGRGLEWVAVTSFDGSNEYYIDSVKGRFTISRDNTKNTLYLQMTGLRVEDTALYFCARDEYTGGFYSVGYWGQGTLVTVSS VL: QSVLTQPPSASGTPGQRVTISCSGNSYNIGSNSVYWYQQFPGTAPKLLISRSIQRPSGVPDRFSGSKSVTSASLAISGLRSEDEADYYCAAWDDSLRAWVFGGGTKLTVLG	0.775
SAN481-SY-YTE (antibody, V domains shown, also called QD2; SAN481VL26S32Y-YTE) VH: QLQLVESGGGAVQPGRSLKLSCAASGFNFSTYAMHWVRQAPGRGLEWVAVTSFDGSNEYYIDSVKGRFTISRDNTKNTLYLQMTGLRVEDTALYFCARDEYTGGWYSVGYWGQGTLVTVSS VL: QSVLTQPPSASGTPGQRVTISCSGSSYNIGSNYVYWYQQFPGTAPKLLISRSIQRPSGVPDRFSGSKSVTSASLAISGLRSEDEADYYCAAWDDSLRAWVFGGGTKLTVLG	0.97

Reported IC50 Fold loss vs. WT (HIgAB), binder SAN481-SYT-YTE (antibody, V domains shown, also called QD5) VH: QLQLVESGGGAVQPGRSLKLSCAASGFTFSTYAMHWVRQAPGRGLEWVAVTSFDGSNEYYIDSVKGRFTISRDNTKNTLYLQMTGLRVEDTALYFCARDEYTGGWYSVGYWGQGTLVTVSS VL: QSVLTQPPSASGTPGQRVTISCSGSSYNIGSNYVYWYQQFPGTAPKLLISRSIQRPSGVPDRFSGSKSVTSASLAISGLRSEDEADYYCAAWDDSLRAWVFGGGTKLTVLG : ____
0.951

Data provenance: patent US20200109190A1
